experimental_details: in vitro
Parameters: Viability of infected HeLa host cells, resazurin conversion, bulk resorufin fluorescence relative to DMSO
assay_context: human, hela cells; bulk resorufin, mean of 3
observable: viability at 28.5 h, 30 µM (%)
One number for each entry, in %.

Here's what some known entries look like.
Cn1cc(C(c2ccc(OCC(=O)O)cc2)c2cn(C)c3ccccc23)c2ccccc21 [c48e] = 87.9
FC(F)(F)c1ccc(N2CCNCC2)nc1OCc1ccc2c(c1)OCCO2 [c46e] = 11.7
CCCCc1ccc(Nc2csc(N)n2)cc1 [c11e] = 69.9

Alright, here's another compound for you.
Exam item: Give the measured viability at 28.5 h, 30 µM of Oc1c(CN2CCN(c3ccc(F)cc3)CC2)cc(Br)c2cccnc12 [c43e] .
Marked response: 85.2

----------
experimental_details: in vitro
assay_context: human, hela cells, % viability
The label is 1 for viability at 28.5 h, 10 µM below 90% and -1 for viability at 28.5 h, 10 µM equal to or exceeding 90%.

Cc1ccc(-n2c(=O)[nH]cc(C(=O)Nc3ccc(C)c(F)c3)c2=O)cc1C = -1
CC1=C[C@@H](CNC(=O)Nc2ccccc2)[C@H](C(C)C)C[C@H]1CC(=O)N1CCN(C)CC1 = -1
N#Cc1ccnc(N2CCC3(CCCN(CC4CCCCC4)C3=O)C2)c1 (stereo not shown) = -1
CN(CC(=O)N1CCCCC1)S(=O)(=O)c1cc(Cl)ccc1Cl = 1
Cn1nccc1CN1CCOC(c2nc(C(C)(C)C)cs2)C1 (stereo not shown) = -1

Exam item: Just wondering, is viability at 28.5 h, 10 µM of CC(NC(=O)Cc1cccs1)c1nc2cccnc2n1C(C)C (stereo not shown) below 90%?
Marked response: 1

----------
experimental_details: in vitro
assay_context: human, hela cells, % viability
For each of the compounds below, state its viability at 28.5 h, 10 µM.
Answers are plain numbers, in %.

Cc1ccc(C2=CCN(CC(=O)Nc3ccc(N(C)C)cc3)CC2)o1 = 95.5
CC1CCc2n[nH]c(C(=O)NCCCc3ccccn3)c2C1 (stereo not drawn) = 105
Cc1cccc(C2NS(=O)(=O)NC2=N)c1 (stereo not drawn) = 98.3

Provide reported viability at 28.5 h, 10 µM for each item, in the same order as listed.
1. O=C(O)c1cccc(NS(=O)(=O)c2ccc(-c3cc(C(F)(F)F)on3)s2)c1
2. CCOc1ccc(NC(=O)C(C)Sc2nc3ccc(F)cc3[nH]2)cc1 (stereo not drawn)
3. O=C(c1ccsc1NS(=O)(=O)Cc1ccccc1[N+](=O)[O-])N1CCOCC1
4. COC(=O)c1c(NC(=S)Nc2cn(C)nc2C(N)=O)sc2c1CCCCC2

Marked response:
1: 98; 2: 107; 3: 89.6; 4: 93.4

Provide reported viability at 28.5 h, 10 µM for each item, in the same order as listed.
1. COC(=O)c1ccc(NC(=O)N2CCCC2c2nc(-c3ccccc3)c3ccccn23)cc1 (stereo not drawn)
2. CCOC(=O)C1(C2CCCCC2)CCN(C(=O)COc2ccccc2OC)CC1

Marked response:
102
96.7

----------
For each of the compounds below, state its viability at 28.5 h, 0.037 µM.
experimental_details: in vitro
Set-up: Viability of infected HeLa host cells, resazurin conversion, bulk resorufin fluorescence relative to DMSO
assay_context: human, hela cells; bulk resorufin, mean of 3
Numbers only, in %.

COc1c(Br)cc2c(cc(C)n2-c2ccccc2)c1OCC(O)CNC(C)C (stereo not shown) = 88.9
O=C(CC1CCN(CCc2ccccc2)CC1)Nc1cccc(-n2cccn2)c1 = 90.6
CN(C(=O)c1ccc(Cl)c(Cl)c1)[C@H]1CCC[C@H]1N1CCCC1 [c12e] = 88.9

Exam item: Give the measured viability at 28.5 h, 0.037 µM of O=C(N/N=C/c1ccc(Sc2cccc3cccnc23)o1)c1cccc(F)c1 [c10e] .
Marked response: 82.9

----------
experimental_details: in vitro
assay_context: human, hela cells, % viability
observable: viability at 28.5 h, 10 µM (%)
Numbers only, in %.

Cc1cc2nc(-c3cc(NC(=O)/C=C/c4cccc([N+](=O)[O-])c4)ccc3O)oc2cc1C = 94.1

Provide reported viability at 28.5 h, 10 µM for each item, in the same order as listed.
1. COc1cc(C2CN=NC23Cc2ccccc2C3=O)cc(OC)c1OC (stereo not shown)
2. CCCC(=O)c1ccc(S(=O)(=O)N2CCN(CCCOC3CCCCO3)CC2)cc1 (stereo not shown)
3. COc1ccc(C(=O)N2CCC3(CCCN(C(=O)c4c(F)cccc4F)C3)C2)cc1OC (stereo not shown)
4. COc1cc(-c2cnc(N)c(N[C@H](CO)C(C)C)n2)cc(OC)c1OC
5. O=C(N[C@@H](Cn1cc(Cl)c(=O)[nH]c1=O)C(=O)O)C1CCCC1
6. COc1cc(CNC(=O)C(C)SCc2ccccc2)ccn1 (stereo not shown)
7. Cc1cc(C)n(CC2CN(CC(=O)NCc3cccs3)CCO2)n1 (stereo not shown)
8. C=CCOC(=O)N1CCC(C(=O)N(C)C(c2cccc(OC)c2)c2ccccn2)CC1 (stereo not shown)

Marked response:
[90.4, 96.6, 94.1, 113, 113, 90.8, 109, 91.5]

----------
Tested on: HeLa
assay_context: bulk resorufin, single well, 28.5 h, 10 µM, Bulk resorufin fluorescence
observable: % viability (%)
Give bare numbers, in %.

Here's what some known entries look like.
CCCOc1cccc(C(=O)Nc2cccc(-c3nc4ncccc4o3)c2C)c1 = 106
O=C(CN1C(=O)C2CCCCC2C1=O)Nc1ccccc1C(=O)O (centres unmarked) = 108
O=C(CN1C(=O)[C@@H]2CCCN2C(=O)c2ccccc21)NCCc1ccccc1 = 90

Provide reported % viability for each item, in the same order as listed.
1. FC(F)(F)c1ccc(Sc2ccccn2)nc1
2. C=Cn1ncc(CN2C[C@@H]3CCCN3C[C@H]2CCSC)c1C
3. Cc1nn(CC(C)C(=O)O)c(C)c1Br (centres unmarked)
4. O=C(C1CCC1)N1CCC[C@H]1Cn1nc(-c2cccs2)ccc1=O
5. C[C@H](Cn1nc2c(cc1=O)CCCCC2)NC(=O)c1cccc(F)c1
6. CCc1cc(CN(CC)CC)n[nH]1

Marked response:
1. 111
2. 101
3. 86.7
4. 78.8
5. 90
6. 94.5

----------
For each of the compounds below, state its viability at 28.5 h, 1 µM.
experimental_details: in vitro
Set-up: Viability of infected HeLa host cells, resazurin conversion, bulk resorufin fluorescence relative to DMSO
assay_context: human, hela cells; bulk resorufin, mean of 3
Give bare numbers, in %.

Here's what some known entries look like.
COc1cccc(CNC(C(=O)O)c2ccc3c(c2)OCO3)c1 (centres unmarked) [c40e] = 104
Cn1cc(C(c2ccc(OCC(=O)O)cc2)c2cn(C)c3ccccc23)c2ccccc21 [c48e] = 93.9
CNC(=S)N1CCN(c2nsc3ccccc23)CC1 = 108
CN(C(=O)c1ccc(Cl)c(Cl)c1)[C@H]1CCC[C@H]1N1CCCC1 [c12e] = 89

Exam item: Give the measured viability at 28.5 h, 1 µM of O=[N+]([O-])c1ccc(-n2cnc3ccccc32)c([N+](=O)[O-])c1 [c41e] .
Marked response: 99.3

----------
experimental_details: in vitro
assay_context: human, hela cells, % viability
The label is MET for viability at 28.5 h, 10 µM below 90% and NOT MET for viability at 28.5 h, 10 µM equal to or exceeding 90%.

These solved cases illustrate the format of a correct answer.
O=C(NC1CCCOC1)C1CCN(Cc2ccccc2Cl)CC1 (stereo not shown) = NOT MET
c1cncc(COc2cncc(OC3CCNC3)n2)c1 (stereo not shown) [CBK077419T] = NOT MET
O=C(Cn1c2ccccc2n2ncnc12)c1ccc(-c2ccccc2)cc1 = NOT MET
CC(C)(C)c1csc(Nc2nc3cc4c(cc3s2)OCO4)n1 = NOT MET
COc1ccc(F)cc1-c1cccc(CC2(C(=O)NCCc3ccccc3)CCOCC2)c1 = MET

Exam item: Just wondering, is viability at 28.5 h, 10 µM of CCOC(=O)c1c(NC(=O)c2cc(-c3ccc(C)c(C)c3)nc3ccccc23)sc2c1CCC(C)C2 (stereo not shown) below 90%?
Marked response: NOT MET

Exam item: Just wondering, is viability at 28.5 h, 10 µM of O=C(NCc1c(Cl)cccc1Cl)N1CCCCC1CO (stereo not shown) below 90%?
Marked response: NOT MET

Exam item: Just wondering, is viability at 28.5 h, 10 µM of O=C(OCc1nnsc1Cl)c1ccc(C(=O)c2ccccc2)cc1 below 90%?
Marked response: NOT MET

----------
experimental_details: in vitro
assay_context: human, hela cells, % viability
The label is label 1 for viability at 28.5 h, 10 µM below 90% and label 0 for viability at 28.5 h, 10 µM equal to or exceeding 90%.

These solved cases illustrate the format of a correct answer.
C#CCOC(=O)NC(=O)c1csnn1 = label 0
O=C(Cc1csc(-c2ccsc2)n1)Nc1nc2c(s1)CCC2 = label 0
CCOc1ccc(S(=O)(=O)N2CCCN(Cc3ccc(C#N)cc3)CC2)c2cccnc12 = label 0
C#CCNC(=O)CC[C@H]1CNC(=O)[C@@H]2[C@@H](CCN2Cc2ccccc2)N1C = label 0
CCN1CCC(CC(=O)NCCn2ccnc2C)CC1 = label 0

Exam item: Just wondering, is viability at 28.5 h, 10 µM of NS(=O)(=O)c1ccc(N/C(S)=N\c2cccc(C(=O)O)c2)cc1 below 90%?
Marked response: label 0

Exam item: Just wondering, is viability at 28.5 h, 10 µM of Cc1onc(-c2ccccc2)c1CNC(=O)CC1CC1 below 90%?
Marked response: label 1

Exam item: Just wondering, is viability at 28.5 h, 10 µM of Cc1c[nH]c(CN(C)c2cc([C@H]3C[C@@H](N)C3)nc(N3CCCC3)n2)n1 below 90%?
Marked response: label 1

The reported measurements were obtained from paper PMC12040169.
